We begin with log10 IC50 values for malonyl-CoA decarboxylase prepared from rat heart (Rattus norvegicus, UniProt Q920F5), as collected from the published literature.
measure-name: log10 IC50 (log10 of the value in nM)

>>> print(df.to_string())
                                   compound  measure_name  value_reported
0  CC(C)N(C(=O)Nc1ccc(C(F)(F)F)cc1)c1ccc2nc(S)sc2n1    log10 IC50            1.72
1  CC(C)N(C(=O)C1=NOC(C(O)(C(F)(F)F)C(F)(F)F)C1)C(C)C (centres unmarked)    log10 IC50            2.10
2  CCCCCCN(C(=O)Nc1cc(OC)cc(OC)c1)c1ccc2nc(S)sc2c1    log10 IC50            1.81
3  O=S(=O)(Nc1ccc(C(O)(C(F)(F)F)C(F)(F)F)cc1)N1CCCCC1    log10 IC50            2.78
4  CC(C)CN(C(=O)Nc1ccc(C#N)cc1)c1ccc2nc(S)sc2c1    log10 IC50            1.97
